# test description: yeast display, Sf9 membrane polyspecificity reagent, FACS + sequencing; frameworks hold sequencing errors
measured parameter: polyreactivity (PSR sort gate)

sequence record: QVQLVESGGGLLQAGGSLRLICAASGRIFTYNAMGWYRQAPGKERELVAAISRRGGTTYYADSVKGRFTISRDNAKNTVYLQMNSLKPEDTAVYYCAALLYYATDDDYWGQGTQVTVSS
assay value: high polyreactivity

sequence record: QVQLVESGGGLVQAGGSLRLSCAASGSTFSFYAMGWDRQAPGKERELVAAIRAGTRTYYADSVKGRFTISRDNAKNTVYLQMNSLKPEDTAVYYCAATRRRYPYYYWGQGTLVTVSS
assay value: high polyreactivity

###

# test description: yeast display, Sf9 membrane polyspecificity reagent, FACS + sequencing; frameworks hold sequencing errors

sequence record: QVQLVESGGGLVQAGGTLRISCAPSGRIFNTNAMRWYRQAPGKERELVAGITDSGDSTYYADSVKGRFTISRDNAKNTVYLQMISLKPEDTAVYYCATDPASPYIYDYWGQGTQVTVSS
polyreactivity (PSR sort gate): low polyreactivity
--
sequence record: QVQLVESGGGLVQAGGSLRLSCAASGRTFAVYAMGWYRQAPGKERELVAAITYGGGRTSYADSVKGRFTISRDYAKNTVYFQMKRLKPEDTAVYSCAADYYGTDYDYWGQGTQVTVSS
polyreactivity (PSR sort gate): low polyreactivity
--
sequence record: QVQLVESGGGLVQAGGSLRLSCAASGFTFLGNVMGWYRQAPGKERELVAAISITGSTSYADSVKGRFTISRDNAKNTVYLQMNSLKPEDTAVYYCAADGGQVDDSATRLYYWGQGTQVTVSS
polyreactivity (PSR sort gate): high polyreactivity
--
sequence record: QVQLEESGGGLVQAGGSLRLSCAASGSTFYYNAIGWYRQAPGKERELVAGITSGTGTKYADSVKGRFTISRDNAKNRVYLQMNSLKPEDTAVYYCAKDGTRYGSAPFGYWGQGTQVTVSS
polyreactivity (PSR sort gate): low polyreactivity
--
sequence record: QVQLVESGGGLVQAGGSLRLSCAASGSIFWSNAMGWYRQAPGKERELVAAITWSGGSTYADSVKGRFTISRDNAKNTVYLQMNSLKPEDTAVYYCAAERAILSSDKQSLWRFDYWGQGTQVTVSS
polyreactivity (PSR sort gate): low polyreactivity
--
sequence record: QDQLVESRGGLVQAGGSLRLSCAASGRTFISNAMGWYRQAPGKERELVAADISWSGGSTYYADSVKGRFTISRDNAKNTVYLQMNIMKPEDTAVYYCNTVIRPYLAYTWSEIFDYWGQGTQVNVSS
polyreactivity (PSR sort gate): low polyreactivity
--
sequence record: QVQLVESGGGLVQAGGSLRLSCAASGSIFSSNAMGWYRQAPGKERELGAAISRSACSTYYADSVKGRFTISRDNAKNTVYLQMNSLKPEDTAVYYCNAVTRLGTYDYWGQGTQVTVSS
polyreactivity (PSR sort gate): high polyreactivity

###

# test description: yeast display, Sf9 membrane polyspecificity reagent, FACS + sequencing; frameworks hold sequencing errors

sequence record: QVQLVESGGGLVQAGGSLRLSCAASGRIFQKYAMGWYRQAPGKERELVAAITTSGGSTYYADSVKGRFTISRDNAKNTVYLQMNSLKPEDTAVYYCAAKSTLSKEGYWGQGTHVTVSS
polyreactivity (PSR sort gate): high polyreactivity
--
sequence record: QVQLVESGGGLVQAGGSLRLSCAASGRIFGYYAMGWYRQAPGKERELVAAITRGGSTNYADSVKGRFTISRDNAKNTVYLQMNSLKPEDTAVYYCNARRYRPGSASYDYWGQGTQVTVSS
polyreactivity (PSR sort gate): high polyreactivity
--
sequence record: QVQLVESGGGLVQAGGSLRLSCAASGRIFYPYAMGWYRQAPGKERELVAAISRSGGSTYYADSVKGRFTISRDNAKNTVYLQMNSLKPEDTAVYYCAAEVVYFYSDAHIGYVDYEYWGQGTQVTVSS
polyreactivity (PSR sort gate): low polyreactivity
--
sequence record: QVQLVESGGGLVQAGGSLRLSCAASGLIFDRSAMGWYRPAPGKERELDAASRWTGASSTYYADSVKGRFTISRDNAKNTVYLQMNSLKPEDTAVYYCNADSPYSFATGPYVLDSDYWGQGTQVTVSS
polyreactivity (PSR sort gate): low polyreactivity
--
sequence record: QVQLVESGGGLVQAGGSLRLSSAASGRTFPTYTIGGYRQAPGKERELVAAITRGGSTKYADSVKGRFTISRDNAKNTVYLQMNSLKPEDTAVYYCAAVYRYRHSFAYYRHEMDYWGQGTQVTVSS
polyreactivity (PSR sort gate): low polyreactivity
--
sequence record: QVQLVESGGGLVQAGGSLRLSSAASGRTLVNYAMGCYRQAPGKERELVAAISYSGGSTYYADSVKGRFTISRDYAKNTVYLQMNSLKPEDTAVYYCAAYYYQRYDYWGQGTQVTVSS
polyreactivity (PSR sort gate): high polyreactivity
--
sequence record: QVQLVESGGGLVQAGGSLRLSCAASGNTFGINAMGWYRQAPGKERELVASISFTGSSTYYADSVKGRFTISRDNAKNTVYLQMNSLKPEDTAVYYCNRDRITLYEYDYWGQGTQVTVSS
polyreactivity (PSR sort gate): low polyreactivity
--
sequence record: QVQLHESGGGLVQAGGGLRLSCAASGSISSTGFMGWYRQAPGKEREPVAAIAPGTTTYYADSVKGRFTISRDNAINTVYLQMNSLRPEDTAVYYCAVFTDNRVAFLYWGQGTQVTVSS
polyreactivity (PSR sort gate): low polyreactivity
--
sequence record: QVQLVESGGGLVQAGGSLRLSCAASGFIFGINAMGWYRQEPGKERELFAAISKRTGSTYYADSVKGRFTISRDNAKNTVYLQMNSLKPEDTAFYYCNVVRYNGLDKYEYWGQGTQVTVSS
polyreactivity (PSR sort gate): high polyreactivity

###

# test description: yeast display, Sf9 membrane polyspecificity reagent, FACS + sequencing; frameworks hold sequencing errors
measured parameter: polyreactivity (PSR sort gate)

sequence record: QVQLVESGGGLVQAGGSLRLSSAASGTFWWYAMGWYRQAPGQEMELVASINRGGSTYYADSVKGRFTISRDNAKNTVYLQMNSLKPEDTAVYYCAAQVDRKYRWFNSWGQGTQVTVSS
assay value: high polyreactivity

sequence record: QVQLVESGGGLVQAGGSLRLSCAASGFIFSRYAMGWYRQAPGKERELVAAINLSGTSTYYADSVKGRFTISRDNAKNTVYLQMNSLKPEDTAVYYCAATSSYIYPYGYWGQGTQVTVSS
assay value: high polyreactivity

sequence record: QVQLVESGGGLVQAGGCLRLSCAASGRTLGAYAMGWYRQAPGKEREFVASITYGGRTCYADSVKGRFTISRDNAMNTVFLQMNSLKPEDSAVYYCASKLPYRWYDYWGQGTQVTVSS
assay value: high polyreactivity

###

# test description: yeast display, Sf9 membrane polyspecificity reagent, FACS + sequencing; frameworks hold sequencing errors

sequence record: QVQLVESGGGLVQAGGSLRLSCAASGFTFGYNAMGWYRQAPGKERELVAAISSSGGSTYYADSVKGRFTISRDNAKNTVYLQMNSLKPEDTAVYYCAKRTPRKWGQGTQVTVSS
polyreactivity (PSR sort gate): high polyreactivity
//
sequence record: QVQLVESGGGLVQAGGSLRVSCAASGIIFNRYAMGWSREAPGKERELVAAITSSGGSTHYADSVKGRFTISRDNAKNTVYLQMNSLKPEDTAVYYCAKQFPYNYRYYLHYYYWGQGTQVTVSS
polyreactivity (PSR sort gate): low polyreactivity
//
sequence record: QVQIVESGGGLVQAGGSLRLSCAASGRILVPYTMGWYRQAPGKERELVAAITIGGRTTYADSVKGRFTISRDNAKNTVYLQMNSLKPEDTAVYYCAKRDWRYEWYGYDYWGQGTQVTVSS
polyreactivity (PSR sort gate): low polyreactivity
//
sequence record: QVHLVESGGGLVQAGGGLRLSSAASGFIFSPNAMGWYRQAPGKEREYVAAISYSGTSTSYADSVKGRFTISRDNAKNTVYLQMNSLKPEDTAVYYCAAGRSNSYSPRRRVTYGYNYWGQGTQVTVSS
polyreactivity (PSR sort gate): high polyreactivity
//
sequence record: QVQLVESGGGLVQAGGSLRLSCAASGSIFVPYAMGWYRQAPGKERELVAAISNGDSTYYADSVKGRFTISRDNAKNTVYLQMNSLKPEDTAVYYCATRGIPDDNARDYWGQGTQVTVSS
polyreactivity (PSR sort gate): low polyreactivity
//
sequence record: QVQLVESGGGLVQAGGSLRLSCAASGFTFQYYAMGWYRQAPGKERELVAAISWSGASTYYADSVKGRFTISRDNAKNTVYLQMNSLKPEDTAVYYSAAKYYRDRDWGQGTQVTVSS
polyreactivity (PSR sort gate): high polyreactivity
//
sequence record: QVQLVESGGGLVQAGGSLRLSCAASGSIFGGYDMGWYRQAPGTERELVAAITRDGDTNYADSVKGRFTISRDNAKNTVYLQMNSLKPEDTAVYYCAADRWLYSWFFNYDQGDYWGQGTQVTVSS
polyreactivity (PSR sort gate): low polyreactivity
//
sequence record: QDQLVESGGGLVQAGGSLRLSCAASGRTFPRNGMGWYRQAPGKERELVAAISWSGGRTYYADSVKGRFTISRDNAKNTVYLQMNSLKPEDTAVYYCNALYFRKGGYWGQGTQVTVSS
polyreactivity (PSR sort gate): high polyreactivity
//
sequence record: QVQLVESGGGLVQAGGSLRLSCAASGFIFKSYAMGWYRQAPGQERELVAAISRSGSSTYYADSVKGRFTISRDNAKNTVYLLMNSLKPEDTAVYYCAKKGYRFIHFGYDYWGQGTQVTVSS
polyreactivity (PSR sort gate): high polyreactivity
//
sequence record: QVQLVESGGGLVQAGGSLRLSCAASGLTFGSYAMGWYRQAPGKERELVAAISRSGGSTYYADSVKGRFTISRDNAKNTVYLQMNSLKPEDTAVYYCNAVNPYYAPTDRRVGYDYWGQGTQVTVSS
polyreactivity (PSR sort gate): high polyreactivity
//
sequence record: QVQLVESGGGLVQAGGSLRLSCAASGRTFIYYAMGWYRQAPGKERELVATIRGSSTRTYYADSVKGRFTISRDNAKNTVYLQMNSLKPEDTAVYYCAARGTSRKYYYWGQGTQVTVSS
polyreactivity (PSR sort gate): high polyreactivity
//
sequence record: QVHLVESGGGLVQAGGSLRLSCAASGLTFYSNAMGWYRQAPGKERELVARISTGGSTYADSVKGRFTISRDNAKNTVYLQMNSLKPEDTAVYYCAKLPPRGIDDEYWGQGNQVTVSS
polyreactivity (PSR sort gate): low polyreactivity
//
sequence record: QVQLVESGGGLVQAGGSLRLSCAASGSIFGGNAMGWYRQAPGKERELVAAITSRGGSTYYADSVKGRFTISRDNAKNTVYLQMNSLKPEDTAVYYCNALSSGVYLYDYWGQGTQVTVSS
polyreactivity (PSR sort gate): high polyreactivity

Taken from the nanobody polyreactivity screen of Harvey et al. (2022).
